B1: tRNA (parent)
chain: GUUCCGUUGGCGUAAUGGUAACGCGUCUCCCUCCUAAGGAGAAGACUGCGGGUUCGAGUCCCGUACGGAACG

- Variants of: B1
- procedure_text: yeast fitness relative to wild type (ratio to wild type); higher = fitter; tRNA-Arg(CCU), competitive growth, 37 C, YPD
Fewer inactive variants are shown than the library holds.

macromolecule_sequence: GUUCCGUUGGCGUAAUGGUAACGCGUCUCCCUCCUAAGGAAACGACUGGGGGUUCGGGUCCCGUACGGAACG [G41A A43C C49G A57G]
yeast fitness: ≤ 0.5
--
macromolecule_sequence: GUUUCAUUGGCGUAAUGGUAACGCGUCUCCCUCUUAAGGAGAAGACUGCGGGUUCGAGUCCCGUACGGAACG [C4U G6A C34U]
yeast fitness: ≤ 0.5
--
macromolecule_sequence: GUUCGGUUGGCGUAAUGGUAACGCGUCUCCCUUCUAAGGAGAAGACUGCGGGUUCGAGUCCCGUCCGCAACG [C5G C33U A65C G68C]
yeast fitness: ≤ 0.5
--
macromolecule_sequence: GUUCCGUUGGCGUAAUGGUAACGCGUGUCCCUCCUAAGGAGAAGACUGUGGGUUCGAGUCCCGUCCGGAACG [C27G C49U A65C]
yeast fitness: ≤ 0.5
--
macromolecule_sequence: GUUCCGUUGGAGUAAUGGUAACGCGUCUCUCUCCUAAGGAGAAGACUGAGGGUUCGAGUCCCGUACGGUACG [C11A C30U C49A A69U]
yeast fitness: ≤ 0.5
--
macromolecule_sequence: GUACCGUUGGCGUUAUGGUAACGCGUCUCCCUCCUAAGGAGAAGACUGCGGGUUCGAGUGUGGUUCGGAACG [U3A A14U C60G C61U C62G A65U]
yeast fitness: ≤ 0.5
--
macromolecule_sequence: GUUCCGUUGACGUAAUGGUCACGCGUCUCCCUCCUAAAGAAAAGACAGCGGGUUCGAGUCCCGUACGGAACG [G10A A20C G38A G41A U47A]
yeast fitness: ≤ 0.5
--
macromolecule_sequence: GUUCCGAUGGCGUAAUGGUAACGCGUCUCCCUCCUGAGGGGAAGACUGCGGGUUCCAGUCCAGUACGGAACG [U7A A36G A40G G56C C62A]
yeast fitness: ≤ 0.5
--
macromolecule_sequence: GUUCCGUUGGCGUAAUGGUAACGCGUCUCCCUCCUAAGAAGAAGACUGCGAGAUCGAGUCCCCUACGGAACG [G39A G51A U53A G63C]
yeast fitness: ≤ 0.5
--
macromolecule_sequence: GUUCCGUUGGGGUAAUGGUAACGCGUCUCCCUCCUAAGGAAAAGACUGCGGGCUCGAGUCCCGUACGGAACG [C11G G41A U53C]
yeast fitness: ≤ 0.5
--
macromolecule_sequence: GUUCCGAUGGCGUUACGGUAACGCGUCUCCCUCCUAAGGAGUAGACUGCGGGUUCGAGUCCCGUACGGAACG [U7A A14U U16C A42U]
yeast fitness: ≤ 0.5
--
macromolecule_sequence: GUUCCGUUGGCGAAAUGGUAAGGCCUUUCGCUCCUAAGGAGAAGACUGCGGGUUAGAGUCCCGUACGGAACG [U13A C22G G25C C27U C30G C55A]
yeast fitness: ≤ 0.5
--
macromolecule_sequence: GUUCCGUUGGAGUAAUGGUAACGCGUCUCUCUCCUAAGGAGAAGCCUGCGGGUUCGAGUCCCGUACGGAACG [C11A C30U A45C]
yeast fitness: ≤ 0.5
--
macromolecule_sequence: GUUCCGUUGGCGUAAUGGUAACGUGUCUCCGUCCUAAGGAGAAGACUGCGGGUUCGAGUACCGCACGGAACG [C24U C31G C60A U64C]
yeast fitness: ≤ 0.5
--
macromolecule_sequence: GUUACGUUGGCGUAAUGGUAACGCGUCUUCCUACUCAGGAGCAGGCUGCGGGUUCGAGUCCCGUACGGAACG [C4A C29U C33A A36C A42C A45G]
yeast fitness: ≤ 0.5
--
macromolecule_sequence: GUUCCGUCGACGUAAUGGUAACGCGUCUCCCUCCUAAGGAGAAGACUGCGAGUUCGAAUCCCGUACGGAACG [U8C G10A G51A G58A]
yeast fitness: ≤ 0.5
--
macromolecule_sequence: GUUCCGCUGGCGUAAUGGUAACGCGUCUCCCUCUUAAGGAGAAGACUGAGGGUUCCAGUCCAGUCCGGAACG [U7C C34U C49A G56C C62A A65C]
yeast fitness: ≤ 0.5
--
macromolecule_sequence: GUUCCGUUGGCGUAGUGGUAACGCGUCUCCCUCCUAAGGAGUAGACUGCGGGUUCGAGUCCCGUACGGAACG [A15G A42U]
yeast fitness: 0.971
--
macromolecule_sequence: GUUCCGUUGGCGUAAUGGUAACGCGUUUCCCUCCUAAGGAGAAGACUGCGGGUUCGUCUCCCGUACGGAACG [C27U A57U G58C]
yeast fitness: 0.667
--
macromolecule_sequence: GUUCCGUUGGCGUAAUGGUAACGCGUCUCCCUCCUAACGAGAAGACUGCCGGUUCGAGUCCCGUACGGAACG [G38C G50C]
yeast fitness: 0.562
--
macromolecule_sequence: GUUUCGUUGGCGUAAUGGUAACGCGUCUCCCUCCUGAGGAGAAGACUGCGGGUUCGAGUCUCGUACGGAACG [C4U A36G C61U]
yeast fitness: 0.73
--
macromolecule_sequence: GUUCCGUUGGCGUAAUGGUAACGCGUAUCCCUCCUAAGGAGAAGACUGCGGGUUCGAGUCCCGUACCGAACG [C27A G67C]
yeast fitness: 0.786
--
macromolecule_sequence: GUUCCGUUGGCGUAAUGGUAACGCGUCUCCCUUCUAAGGAGAAGACUGCGGAUUCGUGUCCCGUACGGAACG [C33U G52A A57U]
yeast fitness: ≤ 0.5
--
macromolecule_sequence: GUUCCGUUGGUGUAAUGGUACCGCGUCUCCCUCCUAAGGAGGAGACUGUGGGUUCGAGUCCCGUACGGCGCG [C11U A21C A42G C49U A69C A70G]
yeast fitness: ≤ 0.5
--
macromolecule_sequence: GUUCCGUUGGCGUAAUGGUAAGGCGUCUCCCUCCUAAGGAGAAGCCUGCGGGUUCGAGUCUCGUGCGGAACG [C22G A45C C61U A65G]
yeast fitness: ≤ 0.5
--
macromolecule_sequence: GUUUCGUUGGCGUAAUGGUAGCGCGUCUCCCUCCUAAGGAGAAGAAUGCGGGUUCGAGUCCUGUACGGAACG [C4U A21G C46A C62U]
yeast fitness: 0.691
--
macromolecule_sequence: GUUCCCUUGGCGUACUGGUAACGCGUCUCCGUGCUAAGGAGAAGACUGCGGGUUUGAGUCUCGUACGGAACG [G6C A15C C31G C33G C55U C61U]
yeast fitness: ≤ 0.5
--
macromolecule_sequence: GUUCCGUUGGCGUAAUGGCAACGUGUCUCCCUCCUAAGGAGAAGACUGCGGGUUCGAGUCCCGUACGGAACG [U19C C24U]
yeast fitness: 0.969
--
macromolecule_sequence: GUUCCGUUGGCGUAAUGGUAACGCGUCUCGCUCCUAAGGAGAAGAGUGCGGGUUCGUGUCCCGUAUGGAUCG [C30G C46G A57U C66U A70U]
yeast fitness: ≤ 0.5
--
macromolecule_sequence: GUUCCGUUAGCGUAAUGGUAACGCGUAUCCCUCCUAAGGAGCAGACUGGGCGUUCGAGUCCCGUCCGGAACG [G9A C27A A42C C49G G51C A65C]
yeast fitness: ≤ 0.5
--
macromolecule_sequence: GCUCCGUUGGCGUAAAGGUAACGCGUCUCCCACCUAUGGAGAAGACUGCGGGUUCGAGUCCAGUACGGAACG [U2C U16A U32A A37U C62A]
yeast fitness: ≤ 0.5
--
macromolecule_sequence: GUUCCGUUGGCGUAAUGGUAACGCGUCUCCCUCCUAAGGAGAAGACUGCGGGUUCCCGUCGCGUACGGAACG [G56C A57C C61G]
yeast fitness: ≤ 0.5
--
macromolecule_sequence: GUUCCGUUGGCGUAAUGGUAACGCGUCUCCCUCCUAAGGAGAAGACUGCGGGUUAGCGUCCCGUAUGGAACG [C55A A57C C66U]
yeast fitness: ≤ 0.5
--
macromolecule_sequence: GUUCCGUUCGCGAAAUGGUAACGCAUCUCCCUCCUAAGGCGAAGACUGCGGGUUCGCGUCGCGUACAGAACG [G9C U13A G25A A40C A57C C61G G67A]
yeast fitness: ≤ 0.5
--
macromolecule_sequence: GUUCCGUUGGCGCAAUGGUAACGCGUCUCCCUCCUAAGGAGAAGACUGCGGGUUAGAGUCCCGUACGGAACG [U13C C55A]
yeast fitness: 0.611
--
macromolecule_sequence: GUUCCGUUGGCGUAAUGGUAACGUGUCUCCUUCCUAAGGCGAAGACUGCGGGUUCGCGUCACGUACAGAACG [C24U C31U A40C A57C C61A G67A]
yeast fitness: ≤ 0.5
--
macromolecule_sequence: GUUCCGUUGGCGUAAUGGUAACGCGUCUCCCUCCUAAGGCGAAGACUGCGGGUUCGAGUCCCGUACGUAACG [A40C G68U]
yeast fitness: 0.788
--
macromolecule_sequence: GUUCCGUUGGUGUAAUGGUAACGCGUCUCCCUCCUAAGGAGAAGACAGCGGGUUCGAGUGCAGUACGGAACG [C11U U47A C60G C62A]
yeast fitness: ≤ 0.5
--
macromolecule_sequence: GUUCCGUUGGCGUAAUGGUAACGCGUCUCCGUCCUCAGGAAAAGACUGUGGGUUCGAGUCCCGUACGGAACG [C31G A36C G41A C49U]
yeast fitness: ≤ 0.5
--
macromolecule_sequence: GUUACGUUGGCGUAAUGCUAACGCGUCUCCCUCCUAAGGAGACGACUGCGGGUUCGAGUCCGGUCAGGAACG [C4A G18C A43C C62G A65C C66A]
yeast fitness: ≤ 0.5
--
macromolecule_sequence: GUUCCAUUGGCGUAAUGGUAACGCGUCUCCCUCCUAAGGAGAAGACUGCGGCUUCGAGUCCCGUACGGAACG [G6A G52C]
yeast fitness: 0.635
--
macromolecule_sequence: GUUCCGUUGGCGUAAUGGUAACGGGUCUCCCCCCUAAGGAGGAGACUGCGGGUUCGAGUCCCGUACGGAACG [C24G U32C A42G]
yeast fitness: 0.574
--
macromolecule_sequence: GUUCUGUUGGCGUAAUGGUAACGCGUCACCCUCCUAAGGAGAAGACUGCGGGUUCGAGUCCCGUUCGGAACG [C5U U28A A65U]
yeast fitness: 0.553
--
macromolecule_sequence: GUUCCGUUGGCGCAAUGGUAACGUGUCUCCCUCGUAAGGAGAAGACUGCGGGUUCGAGUCCCGUACGGAACG [U13C C24U C34G]
yeast fitness: 0.556
--
macromolecule_sequence: GUUCCGUUCGCGUAAUGGUAACGCGUUUCCCUCGUAAGGAGAAGACUGCGGGUUCGAGUACCGUACGGAACG [G9C C27U C34G C60A]
yeast fitness: ≤ 0.5
--
macromolecule_sequence: GUUCCGUGGGCGUAAUGGUGACGCGUCUCCCUCCUAAGGAGAAGACUGCGGGUUCGAGUCCCGUACGGAACG [U8G A20G]
yeast fitness: 0.544
--
macromolecule_sequence: GUUCCGCUGGCGUAAUGGUAACGCGUCUCCCUCCUAAGGAGAACACUGCGGGUUCGAGUCCCGUACGGAACG [U7C G44C]
yeast fitness: 0.84
--
macromolecule_sequence: GUUCCAUUGGCGUAAUGGUAUCGCGGCUCCCUCCUAAGGAGAAGACUGCGGGUUCGAGUCCCGUACGGACCG [G6A A21U U26G A70C]
yeast fitness: 0.569
--
macromolecule_sequence: GUUCCGUCGGCGUAAUGGUAACGCGUCUCCCUCCUAAGGAGAAGACUGCAGGUUCGAGUCCCGUACGGAUCG [U8C G50A A70U]
yeast fitness: 0.736
--
macromolecule_sequence: GUUCCGUUGGCGUAAUGGUGACGCAUCUCCGUCCUAAGGAGAAGACUGCGGGUUCGAGUCCAGUACGGAACG [A20G G25A C31G C62A]
yeast fitness: ≤ 0.5
--
macromolecule_sequence: GUUCCGUUGGCGUAAUGGUAACGCGUCUCCCUCCUCAGGAGAAGACUGCGGGUUCGAGUCCCGUUCGGAACG [A36C A65U]
yeast fitness: 0.667
--
macromolecule_sequence: GUUCCAUUGGUGUAAUGGUACCGCGUCACCCUCCUAAGGAGAAGACUGCGGGUUCGAGUCCUGUACGGAACG [G6A C11U A21C U28A C62U]
yeast fitness: ≤ 0.5
--
macromolecule_sequence: GUUCCGUUGGCGUAAACGUAACGCGUCUCCCUCCUAAGGAGAUGCAUGCGGGUUCGAGUCUCGUACGGAACG [U16A G17C A43U A45C C46A C61U]
yeast fitness: ≤ 0.5
--
macromolecule_sequence: GUUCGGUUGGCAUGAUGGUAACGCGUCUCCCUCCAAAGGAGAAGACUGCGGGUUCGAGUCCCGUACGGAACG [C5G G12A A14G U35A]
yeast fitness: ≤ 0.5
--
macromolecule_sequence: GUUCCGUUGAAGUAAUGGUAACGCGUCUACCUCCUAAGGAGAAGACUGCGGGUUCGAGUCCCGUACGGUACG [G10A C11A C29A A69U]
yeast fitness: 0.538
--
macromolecule_sequence: GUUCCGUUGGCGUAAUAGUAAGGCGUCUCCCUUCUAAGGAGAAGACUGCGGGUUCGAGUCCAGUACGGAACG [G17A C22G C33U C62A]
yeast fitness: ≤ 0.5
--
macromolecule_sequence: GUUCCGUUGGCGUAAUGGUAAGGCGUCUCCAUCCUAAGGAGAGGACUGCGGGUUCGAGUCCCGUACGGUACG [C22G C31A A43G A69U]
yeast fitness: ≤ 0.5
--
macromolecule_sequence: GCUCCGUUGGCGUAAUGGUAACGCGUCUCCCUCCGAAGGAGAAGACUGCGGAUUCGAGUCCCGUACGGAACG [U2C U35G G52A]
yeast fitness: ≤ 0.5
--
macromolecule_sequence: GUUCCGUUGACGUAAUGGUAACGCGUCUCCCUCCGAAGGAGAGGAUUGCGGGUUCGAGUCCCGUACGGUACG [G10A U35G A43G C46U A69U]
yeast fitness: ≤ 0.5
--
macromolecule_sequence: GUUCCGUUGGCGUAAUGGUCACGCGUCUCCCUCCUAAGGAGAAGACUCCGGGUUCGGGUCCCAUACGGAACG [A20C G48C A57G G63A]
yeast fitness: ≤ 0.5
--
macromolecule_sequence: GUUCCAUUGGCGUUAUGGUAACGCGUCUCCCUCCUAAGGAGAAGACUGCGGGUUCGAGUCUCGUACGGAACG [G6A A14U C61U]
yeast fitness: ≤ 0.5
